# System: U2OS
# METHOD DESCRIPTION: Incucyte cell viability with U2OS; note: unitless GR value; below 1 slowed growth and below 0 cell loss
# Assay type: toxicity, cell-based
# APPLIED CONDITIONS: human, 6 h, 10 µM, compound concentration 10 uM, replicate number 2
Task for the reader: assign each of the following molecules its reported Growth Rate.
One number for each entry.

These recorded examples may help you get a feel for the data.
CCc1nc(-c2cccc(C)c2)c(-c2ccncc2)s1 | 0.83
Nc1ccc(S(=O)(=O)Nc2ccnn2-c2ccccc2)cc1 [SULFAPHENAZOLE] | 0.05
O=C(N[C@H]1CN2CCC1CC2)c1ccc(Cl)cc1 [PNU-282987] | 0.78

# map each molecule to its Growth Rate
1. CN(C)c1ccc(-c2cc3ncccc3c(OCCCCO)n2)cc1.O=C(O)C(F)(F)F
2. Nc1nccc(-c2c(-c3ccc(F)cc3)ncn2C2CCN(Cc3ccon3)CC2)n1

1. -0.83
2. 0.8
